Entry source: patent US20190328658A1

Assay: Caco-2 permeability (A-to-B)
Type: in vitro ADME
Conditions: human; Caco-2, A-to-B, 120 minutes, dosing 5myM
Threshold 20%. recovery at 120 min, 5 µM below it: condition met. recovery at 120 min, 5 µM at it or above: condition not met.

Use these answered entries as a reference point.
INSERT INTO assay_data (compound, group) VALUES
  ('C[C@]12CC[C@@H]3c4ccc(O)cc4CC[C@H]3[C@@H]1CC[C@@H]2O [Example E2, estradiol, reference compound]', 'condition met'),
  ('C#C[C@]1(O)CC[C@H]2[C@@H]3CCc4cc(O)ccc4[C@H]3CC[C@@]21C [EE, ethinyl estradiol, reference compound]', 'condition not met'),
  ('C[C@]12CCC3c4ccc(O)cc4CCC3C1C[C@@H](O)[C@@H]2OC(=O)C1CC1 (stereo partly drawn)', 'condition not met'),
  ('CC(=O)Oc1ccc2c(c1)CCC1C2CC[C@@]2(C)C1C[C@@H](O)[C@@H]2O (stereo partly drawn)', 'condition not met'),
  ('C[C@]12CCC3c4ccc(OC(=O)C5CC5)cc4CCC3C1C[C@@H](O)[C@@H]2O (stereo partly drawn)', 'condition met');

API: the following record is the query input.
Does this compound meet the criterion recovery at 120 min, 5 µM < 20%? C[C@]12CCC3c4ccc(OC(=O)C5CC5)cc4CCC3C1C[C@@H](O)[C@@H]2OC(=O)C1CC1 (stereo partly drawn) condition not met

###

Assay: Caco-2 permeability (A-to-B)
Format: in vitro ADME
Settings: human; Caco-2, A-to-B, 120 minutes, dosing 5myM
Measure: Papp A→B at 120 min, 5 µM (×10⁻⁶ cm/s)
Lab book: enter the figure in ×10⁻⁶ cm/s, no units written.

Would you please look over these solved cases?
INSERT INTO results (compound, reading) VALUES
  ('C[C@]12CCC3c4ccc(OC(=O)C5CC5)cc4CCC3C1C[C@@H](O)[C@@H]2O (some centres unmarked)', 1.76),
  ('C#C[C@]1(O)CC[C@H]2[C@@H]3CCc4cc(O)ccc4[C@H]3CC[C@@]21C [EE, ethinyl estradiol, reference compound]', 42.5),
  ('C[C@]12CCC3c4ccc(O)cc4CCC3C1C[C@@H](O)[C@@H]2OC(=O)C1CC1 (some centres unmarked)', 24);

Retrieve Papp A→B at 120 min, 5 µM measured for CC(=O)Oc1ccc2c(c1)CCC1C2CC[C@@]2(C)C1C[C@@H](O)[C@@H]2O (some centres unmarked) and print it. 23.7

Retrieve Papp A→B at 120 min, 5 µM measured for C[C@]12CCC3c4ccc(OC(=O)C5CC5)cc4CCC3C1C[C@@H](O)[C@@H]2OC(=O)C1CC1 (some centres unmarked) and print it. 11.4
